System: SR
Test: Antiproliferative activity against human SR cells assessed as reduction in cell growth
Assay type: functional, cell-based
Active and inactive are the calls of the source. The rule behind the calls is not given here.
Answer with one of the outcomes given here: Y for active, N for inactive

COc1cc(N2CCN(C(=O)CCOCCOCCC(=O)N[C@H](C(=O)N3C[C@H](O)C[C@H]3C(=O)NCc3ccc(-c4scnc4C)cc3)C(C)(C)C)CC2)ccc1Nc1ncc(Cl)c(Nc2ccccc2P(C)(C)=O)n1 | N
COc1cc(N2CCC(N3CCN(C(=O)CCCCCC(=O)N[C@H](C(=O)N4C[C@H](O)C[C@H]4C(=O)NCc4ccc(-c5scnc5C)cc4)C(C)(C)C)CC3)CC2)ccc1Nc1ncc(Cl)c(Nc2ccccc2P(C)(C)=O)n1 | Y

We now examine a further compound.
Inquiry: Tell me the assay call for COc1cc(N2CCN(C(=O)CCOCCOCCOCCOCCC(=O)N[C@H](C(=O)N3C[C@H](O)C[C@H]3C(=O)NCc3ccc(-c4scnc4C)cc3)C(C)(C)C)CC2)ccc1Nc1ncc(Cl)c(Nc2ccccc2P(C)(C)=O)n1 please.
Reply text: N

---

Test system: SR
Assay: Antiproliferative activity against human SR cells assessed as reduction in cell growth
Assay type: functional, cell-based
Activity calls are given as the source filed them. The rule behind the calls is not given here.
Answer with one of the outcomes given here: TRUE = active, FALSE = inactive

COc1cc(N2CCC(NC(=O)CCCCCCC(=O)N[C@H](C(=O)N3C[C@H](O)C[C@H]3C(=O)NCc3ccc(-c4scnc4C)cc3)C(C)(C)C)CC2)ccc1Nc1ncc(Cl)c(Nc2ccccc2P(C)(C)=O)n1 | TRUE
COc1cc(N2CCC(NC(=O)CCOCCOCCOCCOCCOCCC(=O)N[C@H](C(=O)N3C[C@H](O)C[C@H]3C(=O)NCc3ccc(-c4scnc4C)cc3)C(C)(C)C)CC2)ccc1Nc1ncc(Cl)c(Nc2ccccc2P(C)(C)=O)n1 | FALSE
COc1cc(N2CCC(NC(=O)CCOCCOCCOCCC(=O)N[C@H](C(=O)N3C[C@H](O)C[C@H]3C(=O)NCc3ccc(-c4scnc4C)cc3)C(C)(C)C)CC2)ccc1Nc1ncc(Cl)c(Nc2ccccc2P(C)(C)=O)n1 | FALSE
COc1cc(N2CCN(C(=O)CCCCC(=O)N[C@H](C(=O)N3C[C@H](O)C[C@H]3C(=O)NCc3ccc(-c4scnc4C)cc3)C(C)(C)C)CC2)ccc1Nc1ncc(Cl)c(Nc2ccccc2P(C)(C)=O)n1 | TRUE

We now examine a further compound.
Inquiry: Tell me the assay call for COc1cc(N2CCC(NC(=O)CCCCCC(=O)N[C@H](C(=O)N3C[C@H](O)C[C@H]3C(=O)NCc3ccc(-c4scnc4C)cc3)C(C)(C)C)CC2)ccc1Nc1ncc(Cl)c(Nc2ccccc2P(C)(C)=O)n1 please.
Reply text: TRUE

---

System: SR
Assay: Antiproliferative activity against human SR cells assessed as reduction in cell growth
Type: functional, cell-based
Active and inactive are the calls of the source. The calls are words filed in the database; no cut-off is given here.
measure: Activity

Below are worked cases with known answers.
COc1cc(N2CCN(C(=O)CCC(=O)N[C@H](C(=O)N3C[C@H](O)C[C@H]3C(=O)NCc3ccc(-c4scnc4C)cc3)C(C)(C)C)CC2)ccc1Nc1ncc(Cl)c(Nc2ccccc2P(C)(C)=O)n1 | Active
COc1cc(N2CCC(N3CCN(C(=O)CCCC(=O)N[C@H](C(=O)N4C[C@H](O)C[C@H]4C(=O)NCc4ccc(-c5scnc5C)cc4)C(C)(C)C)CC3)CC2)ccc1Nc1ncc(Cl)c(Nc2ccccc2P(C)(C)=O)n1 | Active
COc1cc(N2CCC(N3CCN(C(=O)CCC(=O)N[C@H](C(=O)N4C[C@H](O)C[C@H]4C(=O)NCc4ccc(-c5scnc5C)cc4)C(C)(C)C)CC3)CC2)ccc1Nc1ncc(Cl)c(Nc2ccccc2P(C)(C)=O)n1 | Active
COc1cc(N2CCC(NC(=O)CCCCCCCCC(=O)N[C@H](C(=O)N3C[C@H](O)C[C@H]3C(=O)NCc3ccc(-c4scnc4C)cc3)C(C)(C)C)CC2)ccc1Nc1ncc(Cl)c(Nc2ccccc2P(C)(C)=O)n1 | Active

Let us move to another entry and its Activity.
Noted for COc1cc(N2CCC(N3CCN(C(=O)CCCCC(=O)N[C@H](C(=O)N4C[C@H](O)C[C@H]4C(=O)NCc4ccc(-c5scnc5C)cc4)C(C)(C)C)CC3)CC2)ccc1Nc1ncc(Cl)c(Nc2ccccc2P(C)(C)=O)n1 : its Activity reads Active
